# Target System: UniProtKB P0A017
# Experimental Protocol: Inhibition of Staphylococcus aureus DHFR
Reported Endpoint: IC50 (nM)
Report as a plain number; the unit nM is understood.

Ask: // returns reported IC50 for input Cc1ccc(CN2C(=O)/C(=C3\SC(=S)N(C(=O)O)C3=O)c3ccccc32)cc1
Result: 460

----------
Reported Endpoint: Ki (nM)
Report as a plain number; the unit nM is understood.

Ask: Give recorded Ki with Dihydrofolate reductase (Staphylococcus aureus, UniProt P0A017) for the following molecule: CCCc1cc(N)cc(N)c1Cc1cc(/C=C/C(=O)N2N=Cc3ccccc3C2C=C(C)C)c(OC)c(OC)c1 (stereo unspecified)
Sequence (P0A017 whole entry): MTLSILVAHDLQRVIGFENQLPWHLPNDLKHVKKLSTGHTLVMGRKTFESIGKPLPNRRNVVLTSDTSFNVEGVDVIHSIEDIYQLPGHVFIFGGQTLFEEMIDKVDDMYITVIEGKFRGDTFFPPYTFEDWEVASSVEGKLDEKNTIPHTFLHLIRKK
Result: 4
